# measurement.description: log P from octanol and PBS pH 7.4
# Type: physicochemical
# protocol.conditions: pH 7.4

molecule	logP
[H]/N=C(/N)N/C(=N/[H])NCCc1ccccc1 [Phenformin, N-phenylethyl biguanide, reference compound]	-0.72

###

# Tested on: SKOV3
# measurement.description: MTT cytotoxicity, ovarian cancer cell line SKOV3
# Assay type: cell-based, human
# protocol.conditions: MTT, 72 hours

smiles.record	IC50, µM
N=C(N)NC(=N)NCCc1ccccc1.[C-]#[O+].[C-]#[O+].[C-]#[O+].[Re+]	35

###

# System: OVCAR4
# measurement.description: MTT cytotoxicity, ovarian cancer cell line OVCAR4
# Assay type: cell-based
# protocol.conditions: 72 hours
measured.endpoint: IC50 (µM)

compound	recorded.value
N=C(N)NC(=N)NCCc1ccccc1.[C-]#[O+].[C-]#[O+].[C-]#[O+].[Re+] [Re-Phen]	390

###

# Test system: OVCAR8
# measurement.description: MTT cytotoxicity, ovarian cancer cell line OVCAR8
# Type: cell-based, human
# protocol.conditions: MTT, 72 hours
pIC50: −log10 of the molar value.

smiles.record	pIC50
N=C(N)NC(=N)NCCc1ccccc1.[C-]#[O+].[C-]#[O+].[C-]#[O+].[Re+]	3.96
